Would you mind telling me the reported Protein-protein interaction distance between Abp1 SH3-swapped baits, to BOI1 of each entry?
System: Abp1 PPIs
testMethodNotes: DHFR-PCA of Abp1 SH3-swapped baits (Fig. 2B-D, S2C, S2F);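 also: Euclidean distance between DHFR-PCA score profiles of the baits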
Assay type: cell-based, Saccharomyces cerevisiae
conditionInfo: distance to Abp1 bait with BOI1 SH3; sheet Fig2C
Answers are plain numbers.

Quick one: give me Protein-protein interaction distance between Abp1 SH3-swapped baits, to BOI1 for each item below, same order please.
1. PIN3 (protein, UniProt Q06449 2-215, looked up) [PSI+] inducibility protein 3: SASLINRSLTNIRTELDFLKGSNVISNDVYDQINKSLPAKWDPANAPRNASPASLEYVEALYQFDPQQDGDLGLKPGDKVQLLEKLSPEWYKGSCNGRTGIFPANYVKPAFSGSNGPSNLPPPPQYKAQELQQIPTQNSAASSYQQQPFPPPSTNYYQQPQQQPQQAPPPQQQQQQQQHQSSHSHLKSFGSKLGNAAIFGAGASIGSDIVNNIF
2. SHO1 (protein, UniProt P40073 1-367, looked up) High osmolarity signaling …: MSISSKIRPTPRKPSRMATDHSFKMKKFYADPFAISSISLAIVSWVIAIGGSISSASTNESFPRFTWWGIVYQFLIICSLMLFYCFDLVDHYRIFITTSIAVAFVYNTNSATNLVYADGPKKAAASAGVILLSIINLIWILYYGGDNASPTNRWIDSFSIKGIRPSPLENSLHRARRRGNRNTTPYQNNVYNDAIRDSGYATQFDGYPQQQPSHTNYVSSTALAGFENTQPNTSEAVNLHLNTLQQRINSASNAKETNDNSNNQTNTNIGNTFDTDFSNGNTETTMGDTLGLYSDIGDDNFIYKAKALYPYDADDDDAYEISFEQNEILQVSDIEGRWWKARRANGETGIIPSNYVQLIDGPEEMHR
3. PEX13 (protein, UniProt P80667 1-386, looked up) Peroxisomal membrane protein …: MSSTAVPRPKPWETSASLEEPQRNAQSLSAMMTSNQQDSRPTEESNNSNSASESAPEVLPRPAALNSSGTYGESNTIPGIYGNSNYGIPYDNNPYSMNSIYGNSIGRYGYGGSYYGNNYGSFYGGGYGAGAGYGMNNGSGLGESTKATFQLIESLIGAVTGFAQMLESTYMATHNSFFTMISVAEQFGNLKEMLGSFFGIFAIMKFLKKILYRATKGRLGIPPKNFAESEGSKNKLIEDFQKFNDSGTINSNEKATRRKISWKPLLFFLMAVFGFPYLLNKFITKLQTSGTIRASQGNGSEPIDPSKLEFARALYDFVPENPEMEVALKKGDLMAILSKKDPLGRDSDWWKVRTKNGNIGYIPYNYIEIIKRRKKIEHVDDETRTH
4. LSB1 (protein, UniProt P53281 2-241, looked up) LAS seventeen-binding protein …: SASLVNRSLKNIRNELEFLKESNVISGDIFELINSKLPEKWDGNQRSPQNADTEEYVEALYDFEAQQDGDLSLKTGDKIQVLEKISPDWYRGKSNNKIGIFPANYVKPAFTRSASPKSAEAASSSTVSRPSVPPPSYEPAASQYPSQQVSAPYAPPAGYMQAPPPQQQQAPLPYPPPFTNYYQQPQQQYAPPSQQAPVEAQPQQSSGASSAFKSFGSKLGNAAIFGAGSAIGSDIVNSIF

Reply:
1: 13.58; 2: 8.152; 3: 13.22; 4: 16.11

// provenance: paper PMC7954794
